Consider the following compounds; for each one, report its EC50.
ASSAY_NAME: cytotoxicity toward DRD oncogenic fibroblasts, dose response, cell-based, non-viral oncogenic, luminescence (AID 1934)
Type: functional
CONDITION: Homo sapiens
Activity calls are given as the source filed them.

// EC50 lookup, key: O=C(CCl)Nc1ccccc1C(=O)c1ccccc1 35.3 µM (active)

How about Cc1ccc2nsnc2c1NC(=O)c1ccc(-c2cc(Cl)ccc2Cl)o1 ? 5.89 µM (active)

COc1cc(C(=O)/C=C/c2cccnc2)c([N+](=O)[O-])cc1OC ? 9.22 µM (active)

Please give the result for O=C(O)c1ccc(N/N=C/c2ccc3c(c2)OCO3)cc1 too. 8.19 µM (active)

Now give it for O=C(NC1CCCCC1)C(c1cccnc1)N(C(=O)CCl)c1ccccc1Cl (stereo not given) too. 37.3 µM (active)

====

Test system: Streptococcus
ASSAY_NAME: Group A Streptococcus viability loss, dose response, counter-screen for streptokinase expression inhibitor project, luminescence, BacTiterGlo (AID 1915);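 also: potency for reduction of bacterial viability or growth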
Format: functional, organism-based
CONDITION: Streptococcus
The source made the active and inactive calls.
ATTRIBUTE_MEASURED: EC50

Bench note: what EC50 did O=C(Nc1nc(-c2ccc3c(c2)OCCO3)cs1)c1ccco1 show? > 150 µM (not active)

Please give the result for O=C(Nc1cccc(-c2ccc(N3CCOCC3)nn2)c1)c1ccccc1Cl too. > 150 µM (not active)

Same read-out for Cc1ccc(C(O)(C(=O)NNc2ccc3ccccc3n2)c2ccc(C)cc2)cc1 ? 12.1 µM (active)

// next record CCC(=O)N1N/C(=C2/C(=O)NC(=O)N(CCc3ccccc3)C2=O)CC1c1ccc(OC)c(OC)c1 (centres undefined) 26.4 µM (active)

====

TARGET_OF_ASSAY: Induced myeloid leukemia cell differentiation protein Mcl-1 (Homo sapiens)
Sequence (Q07820 whole entry): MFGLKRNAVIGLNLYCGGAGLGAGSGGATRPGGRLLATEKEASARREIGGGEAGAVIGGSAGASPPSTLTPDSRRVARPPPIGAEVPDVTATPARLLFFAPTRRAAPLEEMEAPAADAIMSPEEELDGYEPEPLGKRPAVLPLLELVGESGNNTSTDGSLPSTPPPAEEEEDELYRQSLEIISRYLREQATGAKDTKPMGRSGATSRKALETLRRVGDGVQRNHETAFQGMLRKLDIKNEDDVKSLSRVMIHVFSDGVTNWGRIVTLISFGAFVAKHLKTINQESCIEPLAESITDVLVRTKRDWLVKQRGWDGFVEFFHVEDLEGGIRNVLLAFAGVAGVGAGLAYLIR
Format: functional
Calls of active or inactive are those of the source.
Give IC50 for every item shown.

Give its IC50 value. Item: Cc1cc(/C=N/n2c(COc3ccccc3C)nc3ccccc3c2=O)c(O)c([N+](=O)[O-])c1 4.58 µM (active)

// same read-out, input: COC(=O)c1cc(O)cc(OC)c1Oc1cc(C)cc(O)c1C(=O)O [ASTERRIC ACID] 2.42 µM (not active)

And then O=C1NN(c2ccc(Cl)cc2)C(=O)/C1=C\c1ccc(-c2cccc(C(=O)O)c2)o1 , what is it? 3.21 µM (active)

Again, but for COc1cc(/C=N/NC(=O)c2ccc([N+](=O)[O-])cc2Cl)cc(Br)c1O 15.2 µM (not active)

Also O=C(O)CCn1cc(C=C2C(=O)NC(=S)NC2=O)c(-c2cccc(Br)c2)n1 , if possible. 2.39 µM (active)

// query: O=C(CNc1ccc2ccccc2c1)N/N=C/C=C/c1cccc([N+](=O)[O-])c1 6.79 µM (active)

====

System: H4
ASSAY_NAME: Luminescence Cell-Based Dose Response HTS to Identify Activators of 5'UTR Stem-Loop Driven Prion Protein mRNA Translation in H4 Neuroglioblastoma Cells. [Related pubchem assays: 1829 (Project Summary), 1814 (Primary HTS)]
Format: functional
CONDITION: Homo sapiens
Active and inactive are the calls of the source.
ATTRIBUTE_MEASURED: EC50

Any idea what EC50 came out for CCCCc1c(C)nn(-c2nnc3c4ccccc4n(C)c3n2)c1C on H4? 15.8 µM (active)

Moving on to CN(C)c1ccc(/C=C/c2nnnn2-c2ccccc2)cc1 < 0.1 µM (active)

Try O=C(c1ccccc1)N1CCN(CC#Cc2ccccc2)CC1 next. 6.67 µM (active)

Field entry: Cc1cc(/C=C(\C#N)C(=O)NC2CC2)c(C)[nH]1 > 120 µM (not active)

====

Record form. Attribute: EC50. Fill in for each entry.
TARGET_OF_ASSAY: Luciferin 4-monooxygenase (Photinus pyralis)
Sequence (P08659 whole entry): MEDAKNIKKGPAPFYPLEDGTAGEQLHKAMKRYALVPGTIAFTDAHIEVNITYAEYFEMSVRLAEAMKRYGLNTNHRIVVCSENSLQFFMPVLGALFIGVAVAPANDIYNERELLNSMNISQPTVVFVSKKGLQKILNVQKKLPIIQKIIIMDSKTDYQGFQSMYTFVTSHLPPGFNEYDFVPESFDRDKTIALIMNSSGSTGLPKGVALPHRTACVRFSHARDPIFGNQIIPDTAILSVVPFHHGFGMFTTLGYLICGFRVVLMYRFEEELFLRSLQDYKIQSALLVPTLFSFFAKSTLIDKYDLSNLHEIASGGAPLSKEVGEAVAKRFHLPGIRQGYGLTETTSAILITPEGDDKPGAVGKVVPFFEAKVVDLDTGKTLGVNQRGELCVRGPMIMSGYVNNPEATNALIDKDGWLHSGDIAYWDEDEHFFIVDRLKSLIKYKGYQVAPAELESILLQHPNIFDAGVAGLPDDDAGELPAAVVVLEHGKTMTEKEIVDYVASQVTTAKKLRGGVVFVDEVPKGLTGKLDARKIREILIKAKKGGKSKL
ASSAY_NAME: firefly luciferase enzyme inhibitors, dose response, biochemical, luminescence (AID 1891)
Calls of active or inactive are those of the source.

Quick one: EC50 for CNC(S)=NCCc1ccc(OC)c(OC)c1 ? > 112 µM (not active)

How about O=C(CC1Oc2ccccc2NC1=O)NC1CC1 (centres undefined) ? > 112 µM (not active)

Request: COC(=O)/C=C1\SC(N/N=C/c2ccc(Cl)cc2)=NC1=O 41.5 µM (active)

Request: OC(CNCc1ccc(Cl)c(Cl)c1)c1ccccc1 (centres undefined) > 112 µM (not active)

Repeat with COc1cc(OC)nc(NC(=O)CSc2nnc(-c3ccccc3)n2C2CCCCC2)n1 > 112 µM (not active)

Also check CC(=O)c1cccc(NC(=O)COC(=O)[C@@H](NC(=O)OCc2ccccc2)C(C)C)c1 > 112 µM (not active)

Okay, and CCOc1ccccc1-c1nc(C(N)=O)c2nc(O)n(-c3cccc(C)c3)c2n1 ? > 112 µM (not active)

Same question for NC(=NOC(=O)c1ccccc1Cl)c1nonc1N please. 1.11 µM (active)

Can you check O=C(O)c1ccc(N/N=C/c2ccc3c(c2)OCO3)cc1 next? < 0.088 µM (active)

Input O=Nc1c(O)n(Cc2c(Cl)cccc2Cl)c2ccccc12 > 112 µM (not active)

How about this molecule: Cc1[nH]c2ccccc2c1C(Nc1nccs1)c1ccncc1 (centres undefined) > 112 µM (not active)

Follow-up entry: CCCS(=O)(=O)c1cnc(C2COc3ccccc3O2)nc1N (centres undefined) 14.4 µM (active)

Same for CCc1nc(NC(C)C)c2oc3ccccc3c2n1 > 112 µM (not active)

Consider next the molecule COC(=O)c1sc(NC(=O)c2c(C)noc2C)nc1C in the same way. 30.6 µM (active)

====

Exercise: for every item that follows, state its recorded IC50.
TARGET_OF_ASSAY: Sentrin-specific protease 8 (Homo sapiens, UniProt Q96LD8);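 also: kinetic enzyme assay of SENP8 cleaving a Nedd8 protein substrate, dose-response confirmation of screening hits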
Sequence (Q96LD8 whole entry): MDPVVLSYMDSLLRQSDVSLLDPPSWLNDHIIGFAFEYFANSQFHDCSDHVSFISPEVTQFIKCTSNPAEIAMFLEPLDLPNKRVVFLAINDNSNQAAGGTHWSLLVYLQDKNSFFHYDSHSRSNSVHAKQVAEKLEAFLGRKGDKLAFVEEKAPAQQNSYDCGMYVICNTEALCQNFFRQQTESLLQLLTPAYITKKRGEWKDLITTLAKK
Format: functional
The source made the active and inactive calls.

What does the record list as IC50 for CCN1CCC2(CC1)N=C(c1ccc(F)cc1)C(=S)N2C(=O)c1ccc(C)cc1 ? 15.3 µM (active)

Similarly, O=C(N/N=C/c1ccc([N+](=O)[O-])o1)c1ccncc1 ? 35.3 µM (active)

What do you have for CCC(CO)Oc1cc(NCc2ccncc2)c2ncn(C(C)C)c2c1 (centres undefined) ? 24.5 µM (active)

What about this compound? COc1cc(C(=O)c2nccc3cc(OC)c(OC)cc23)c([N+](=O)[O-])cc1OC 0.535 µM (active)

====

TARGET_OF_ASSAY: UniProt P49327
Sequence (P49327 whole entry, the tested form may be a part): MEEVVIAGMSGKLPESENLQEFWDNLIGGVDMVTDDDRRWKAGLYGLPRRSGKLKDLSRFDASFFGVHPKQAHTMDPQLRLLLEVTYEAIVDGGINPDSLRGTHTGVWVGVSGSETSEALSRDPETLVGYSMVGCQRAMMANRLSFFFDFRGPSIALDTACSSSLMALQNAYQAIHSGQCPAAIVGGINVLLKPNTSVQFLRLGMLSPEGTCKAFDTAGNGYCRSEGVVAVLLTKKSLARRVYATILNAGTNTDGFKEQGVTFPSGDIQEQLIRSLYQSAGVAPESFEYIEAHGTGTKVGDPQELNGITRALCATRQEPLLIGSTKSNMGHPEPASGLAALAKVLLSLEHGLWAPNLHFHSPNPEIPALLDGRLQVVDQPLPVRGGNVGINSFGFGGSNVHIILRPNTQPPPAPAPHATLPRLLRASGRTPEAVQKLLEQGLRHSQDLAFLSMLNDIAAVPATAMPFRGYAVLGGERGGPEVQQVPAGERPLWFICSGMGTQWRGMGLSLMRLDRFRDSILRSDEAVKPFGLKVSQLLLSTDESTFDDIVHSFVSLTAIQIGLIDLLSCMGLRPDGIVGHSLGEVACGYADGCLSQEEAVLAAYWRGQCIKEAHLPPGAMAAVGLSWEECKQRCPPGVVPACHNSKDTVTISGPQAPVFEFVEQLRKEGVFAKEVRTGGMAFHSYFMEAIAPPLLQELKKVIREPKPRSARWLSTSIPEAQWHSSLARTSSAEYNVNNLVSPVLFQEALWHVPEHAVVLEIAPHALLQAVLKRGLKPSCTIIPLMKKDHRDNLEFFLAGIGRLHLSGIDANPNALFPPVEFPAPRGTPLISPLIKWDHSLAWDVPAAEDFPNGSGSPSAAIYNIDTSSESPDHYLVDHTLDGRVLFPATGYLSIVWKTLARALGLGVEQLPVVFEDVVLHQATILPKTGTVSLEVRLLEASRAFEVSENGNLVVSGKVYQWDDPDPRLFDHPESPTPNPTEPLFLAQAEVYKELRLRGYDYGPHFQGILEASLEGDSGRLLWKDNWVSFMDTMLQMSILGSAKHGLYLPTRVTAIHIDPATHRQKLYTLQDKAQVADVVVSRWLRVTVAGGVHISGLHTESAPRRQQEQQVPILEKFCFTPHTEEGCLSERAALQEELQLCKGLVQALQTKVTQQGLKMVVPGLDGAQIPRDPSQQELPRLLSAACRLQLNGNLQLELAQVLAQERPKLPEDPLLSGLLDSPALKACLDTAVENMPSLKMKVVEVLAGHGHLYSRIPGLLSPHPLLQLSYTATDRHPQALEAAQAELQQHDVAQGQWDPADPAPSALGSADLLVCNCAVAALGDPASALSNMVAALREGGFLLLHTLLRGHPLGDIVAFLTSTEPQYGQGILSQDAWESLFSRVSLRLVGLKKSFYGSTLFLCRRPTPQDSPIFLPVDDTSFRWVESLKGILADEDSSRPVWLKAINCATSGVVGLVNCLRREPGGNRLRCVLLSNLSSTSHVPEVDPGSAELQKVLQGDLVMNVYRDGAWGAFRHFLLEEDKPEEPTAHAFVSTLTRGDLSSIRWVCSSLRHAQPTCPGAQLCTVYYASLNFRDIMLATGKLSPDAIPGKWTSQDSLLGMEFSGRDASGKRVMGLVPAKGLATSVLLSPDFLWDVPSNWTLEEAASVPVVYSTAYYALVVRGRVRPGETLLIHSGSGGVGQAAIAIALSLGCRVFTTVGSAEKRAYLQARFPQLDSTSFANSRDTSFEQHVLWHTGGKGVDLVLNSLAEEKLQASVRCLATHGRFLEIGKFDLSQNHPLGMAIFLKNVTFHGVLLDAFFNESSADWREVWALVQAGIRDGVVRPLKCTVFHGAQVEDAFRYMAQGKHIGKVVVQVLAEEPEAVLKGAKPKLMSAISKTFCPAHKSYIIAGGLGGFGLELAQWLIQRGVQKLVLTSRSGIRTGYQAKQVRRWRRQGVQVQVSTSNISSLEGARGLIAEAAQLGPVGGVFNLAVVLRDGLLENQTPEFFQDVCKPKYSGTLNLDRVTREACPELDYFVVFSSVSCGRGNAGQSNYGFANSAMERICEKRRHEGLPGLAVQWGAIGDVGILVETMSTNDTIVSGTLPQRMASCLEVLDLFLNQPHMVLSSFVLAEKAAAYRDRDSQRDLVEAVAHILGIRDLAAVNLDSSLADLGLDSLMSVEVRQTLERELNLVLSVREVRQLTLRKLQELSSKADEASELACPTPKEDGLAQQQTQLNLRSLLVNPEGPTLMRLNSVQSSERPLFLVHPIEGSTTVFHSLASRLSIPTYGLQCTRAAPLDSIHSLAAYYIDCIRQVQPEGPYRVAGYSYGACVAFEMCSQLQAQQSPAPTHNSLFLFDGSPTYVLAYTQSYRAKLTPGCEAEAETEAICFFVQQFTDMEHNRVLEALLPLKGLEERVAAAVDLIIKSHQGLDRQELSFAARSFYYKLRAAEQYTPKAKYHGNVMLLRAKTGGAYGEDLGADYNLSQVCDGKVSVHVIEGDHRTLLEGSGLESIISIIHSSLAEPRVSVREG
ASSAY_NAME: FAS thioesterase domain inhibitors, dose response, biochemical, kinetic fluorescence intensity (AID 624326);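 also: rate of fluorescence rise from hydrolysis of a fluorogenic O-methyl fluorescein ester substrate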
Assay type: functional
Activity calls are given as the source filed them.
ATTRIBUTE_MEASURED: IC50

# get_value(readout= IC50, system= UniProt P49327) for O=C1NC(=S)S/C1=C\c1cc2ccccc2nc1N1CCCCC1 11.2 µM (active)

Try this molecule too: Fc1nc(F)c(F)c(NCCCNc2c(F)c(F)nc(F)c2F)c1F 7.19 µM (active)

Repeat with Cc1ccc(S(=O)(=O)c2nnn3c2nc(NCCCN2CCCC2=O)c2ccccc23)cc1C 2.85 µM (active)

Query CC(=O)c1cccc2c1OC(C)C(=O)N2Cc1ccc(Cl)cc1 (configuration not stated) next 5.63 µM (active)

Try O=C(COc1ccccc1)Nc1nc(-c2ccc(S(=O)(=O)N3CCOCC3)cc2)cs1 next. 0.489 µM (active)

What about this molecule? COc1cccc(NC(=O)CN2C(=O)CSc3ccc(S(=O)(=O)N4CCCCC4)cc32)c1 9.58 µM (active)

Again, but for CCCC(=O)OCCNc1cc(Sc2nc3ccccc3[nH]2)c2nonc2c1[N+](=O)[O-] 1.34 µM (active)

====

# AC50 measurements, system: Cytochrome P450 1A2 (Homo sapiens, UniProt P05177);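 also: PubChem cytochrome P450 panel assay, CYP1A2 panel member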
# Sequence (P05177 whole entry): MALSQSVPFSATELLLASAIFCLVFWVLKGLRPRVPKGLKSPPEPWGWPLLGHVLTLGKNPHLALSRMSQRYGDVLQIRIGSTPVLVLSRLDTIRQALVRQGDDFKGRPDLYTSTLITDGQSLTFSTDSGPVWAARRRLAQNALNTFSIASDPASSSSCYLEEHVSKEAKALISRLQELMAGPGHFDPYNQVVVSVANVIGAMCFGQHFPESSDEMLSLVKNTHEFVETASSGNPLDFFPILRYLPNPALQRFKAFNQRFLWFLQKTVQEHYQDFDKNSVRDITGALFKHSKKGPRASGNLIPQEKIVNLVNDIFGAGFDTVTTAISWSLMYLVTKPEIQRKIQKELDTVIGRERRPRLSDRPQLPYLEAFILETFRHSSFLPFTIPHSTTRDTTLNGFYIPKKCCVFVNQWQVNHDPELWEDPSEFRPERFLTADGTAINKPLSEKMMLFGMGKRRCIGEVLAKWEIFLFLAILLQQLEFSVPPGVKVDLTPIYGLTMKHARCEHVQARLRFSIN

Consider the compound O=c1c(CCc2ccccc2)nc2cnc(N3CCNCC3)nc2n1Cc1ccc(F)cc1 and give its measured AC50. 10 µM (inconclusive)

Same question for N#Cc1ccc(CN2CC[C@@]3(CCCN(S(=O)(=O)c4ccccc4)C3)C2)cc1 please. 15.8 µM (inconclusive)

Likewise for CCOc1cc(NC(=O)C2CCCCC2)c(OCC)cc1NC(=O)c1ccco1 ? 2 µM (inconclusive)

What would you report for O=C(Oc1ccccc1)N1CCC2(CC1)CCN(c1cccc(-c3ccccc3)c1)CC2 ? 12.6 µM (inconclusive)

Cool, now O=C(Nc1ccccc1)N1CC2(CCN(C(=O)c3cnccn3)CC2)C1 20 µM (inconclusive)

====

So I've got AC50 readings for UniProtKB P11712, take a look.
Sequence (P11712 whole entry): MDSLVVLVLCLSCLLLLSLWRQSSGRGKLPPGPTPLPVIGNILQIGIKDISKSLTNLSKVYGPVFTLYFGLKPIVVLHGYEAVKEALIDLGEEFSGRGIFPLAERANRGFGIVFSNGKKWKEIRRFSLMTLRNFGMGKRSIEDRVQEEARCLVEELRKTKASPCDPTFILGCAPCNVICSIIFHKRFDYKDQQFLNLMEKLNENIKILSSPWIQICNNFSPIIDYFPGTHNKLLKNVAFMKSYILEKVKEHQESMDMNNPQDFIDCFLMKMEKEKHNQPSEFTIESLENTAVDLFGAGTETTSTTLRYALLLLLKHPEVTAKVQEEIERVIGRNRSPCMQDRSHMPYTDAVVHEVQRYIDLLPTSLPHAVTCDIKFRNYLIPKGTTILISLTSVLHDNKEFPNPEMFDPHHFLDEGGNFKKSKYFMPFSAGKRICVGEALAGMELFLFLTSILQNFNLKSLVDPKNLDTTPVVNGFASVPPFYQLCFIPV

Entry under review: CCCCC1CC(/C(C)=N/NC(N)=O)OC1=O (configuration not stated) . Reported AC50? 20 µM (inconclusive)

How about this compound: CCOC(=O)Cc1cc(O)n2nc(C)c(-c3ccccc3)c2n1 39.8 µM (inconclusive)

Record: COC(=O)Cn1cc(/C=N/NC(=O)c2ccc(C#N)cc2F)c2ccccc21 8.91 µM (inconclusive)

Would you mind doing CCOc1cc(NC(=O)C2CCCCC2)c(OCC)cc1NC(=O)c1ccco1 as well? 11.2 µM (inconclusive)

Similarly, COc1ccc(S(=O)(=O)N2CCCN(CC(=O)Nc3ccc(OC)c(Cl)c3)CC2)cc1 ? 39.8 µM (inconclusive)

Consider next the compound Cc1cccc(CNc2ncncc2-c2ccccc2C)c1 in the same way. 1.26 µM (inconclusive)

What about this compound? CCCCC(=O)Nc1ccc(C)c(O)c1 14.1 µM (inconclusive)

Next: CCn1nnnc1SCC(=O)c1ccc2c(c1)OCCO2 17.8 µM (inconclusive)

Now consider CCCn1nc(C(=O)NCC(C)(C)N2CCOCC2)c2ccccc2c1=O and answer again. 39.8 µM (inconclusive)

Repeat for the following compound: N#CCSc1nc2ccc(N3CCCCC3)cc2c(=O)n1Cc1ccccc1 4.47 µM (inconclusive)

And Cc1nn2c(nc(O)c3ccccc32)c1C=O ? 15.8 µM (inconclusive)

Please do the same for Cc1cnn(CCC(=O)NN=C(S)Nc2cccc(Cl)c2)c1 as well. 15.8 µM (inconclusive)
